- ASSAYED_TARGET: EPHB2 (human)
- METHOD_SUMMARY: radiometric filter-binding kinase assay
- TEST_CONDITIONS: compound 10.0 µM
MEASURE: residual activity (%)
Give just the number in %; leave the unit off.

Q. I have this compound here, `CNc1nc(-c2ccc3c(N)n[nH]c3c2)cc(N2C[C@@H](C(=O)NC3CCCCC3)CC[C@H]2C)n1` , and I need its recorded residual activity.
A. 111

Q. I have this compound here, `CC(C)(C#N)c1ccc(N2C(=O)OCc3cnc4ccc(-c5cnc6ccccc6c5)cc4c32)cc1` , and I need its recorded residual activity.
A. 95

Q. I have this compound here, `O=C(Nc1ccccc1-c1cn2c(CN3CCNCC3)csc2n1)c1cnc2ccccc2n1` , and I need its recorded residual activity.
A. 84

Q. I have this compound here, `COc1cc(C(=O)N2CCOCC2)c(F)cc1Nc1ncc(C(F)(F)F)c(NC2CC2)n1` , and I need its recorded residual activity.
A. 97

Q. I have this compound here, `Oc1ccc(/C=C/c2cc(O)cc(O)c2)cc1` , and I need its recorded residual activity.
A. 116

Q. I have this compound here, `Cc1nc(-c2ccc(OCC(C)C)c(C#N)c2)sc1C(=O)O` , and I need its recorded residual activity.
A. 102

Q. I have this compound here, `NCC(=O)Nc1ccc(-n2nc(C(F)(F)F)cc2-c2ccc3c(ccc4ccccc43)c2)cc1` , and I need its recorded residual activity.
A. 91

====

- ASSAYED_TARGET: RPS6KA1 KD1 KD2 (human)
- METHOD_SUMMARY: radiometric filter-binding kinase assay
- TEST_CONDITIONS: compound 0.1 µM
MEASURE: residual activity (%)
Give just the number in %; leave the unit off.

Q. I have this molecule here, `NC(=O)c1cc2c(-c3cccc(-c4ccccc4)c3)cnc(N)c2s1` , and I need its recorded residual activity.
A. 92

Q. I have this molecule here, `C=CC(=O)N1CCC[C@@H](n2nc(-c3ccc(Oc4ccccc4)cc3)c3c(N)ncnc32)C1` , and I need its recorded residual activity.
A. 94

Q. I have this molecule here, `Cc1cc(NC(=O)c2cccc(NC(=O)/C=C/CN(C)C)c2)ccc1Nc1nccc(-c2cccnc2)n1` , and I need its recorded residual activity.
A. 89

Q. I have this molecule here, `COc1ccc(N(C(=O)Nc2c(C)cccc2C)c2cc(Nc3ccc(N4CCN(C)CC4)cc3)ncn2)c(OC)c1` , and I need its recorded residual activity.
A. 91

Q. I have this molecule here, `O=C(N[C@@H](COc1ccc2[nH]c(=O)[nH]c2c1)c1ccccc1)c1cccn(Cc2ccc(F)c(F)c2)c1=O` , and I need its recorded residual activity.
A. 95

====

- ASSAYED_TARGET: MAPKAPK2 (human)
- METHOD_SUMMARY: radiometric filter-binding kinase assay
- TEST_CONDITIONS: compound 10.0 µM
MEASURE: residual activity (%)
Give just the number in %; leave the unit off.

Q. Value wanted: residual activity (MAPKAPK2 (human)) of entry CC(C)C[C@H](NC(=O)CNC(=O)c1cc(Cl)ccc1Cl)B1OC(=O)CC(CC(=O)O)(C(=O)O)O1 (some centres undefined)
A. 88

Q. Value wanted: residual activity (MAPKAPK2 (human)) of entry Nc1cccc2c1CN(C1CCC(=O)NC1=O)C2=O (centres undefined)
A. 92

Q. Value wanted: residual activity (MAPKAPK2 (human)) of entry `Oc1ccc(/C=C/c2cc(O)cc(O)c2)cc1`
A. 88

Q. Value wanted: residual activity (MAPKAPK2 (human)) of entry `O=C(N[C@@H](COc1ccc2[nH]c(=O)[nH]c2c1)c1ccccc1)c1cccn(Cc2ccc(F)c(F)c2)c1=O`
A. 90

Q. Value wanted: residual activity (MAPKAPK2 (human)) of entry `COC(=O)/C=C/C(=O)OC`
A. 92

Q. Value wanted: residual activity (MAPKAPK2 (human)) of entry `Cc1ccc(=O)n(-c2ccccc2)c1`
A. 93

Q. Value wanted: residual activity (MAPKAPK2 (human)) of entry `CCc1cncnc1N1CCN(Cc2nc3cc(C(F)(F)F)ccc3[nH]2)CC1`
A. 78

Q. Value wanted: residual activity (MAPKAPK2 (human)) of entry `O=C1NC(=S)N[C@@H]1Cc1c[nH]c2ccccc12`
A. 96

Q. Value wanted: residual activity (MAPKAPK2 (human)) of entry `NC(=O)c1ccc(-c2ccc(Oc3cncc4sc(-c5nn[nH]n5)cc34)cc2)cc1`
A. 85

Q. Value wanted: residual activity (MAPKAPK2 (human)) of entry `N#Cc1c(O)c2c(-c3ccc(-c4ccccc4O)cc3)csc2[nH]c1=O`
A. 77

Q. Value wanted: residual activity (MAPKAPK2 (human)) of entry `Cn1nc(Nc2ccc(F)cc2)c2c(N)ncnc21`
A. 95

Q. Value wanted: residual activity (MAPKAPK2 (human)) of entry O=C(NOCC(O)CO)c1ccc(F)c(F)c1Nc1ccc(I)cc1Cl (centres undefined)
A. 102

Q. Value wanted: residual activity (MAPKAPK2 (human)) of entry `CCCC(CCC)C(=O)O`
A. 102

Q. Value wanted: residual activity (MAPKAPK2 (human)) of entry `O=C(NOC[C@H](O)CO)c1ccc(F)c(F)c1Nc1ccc(I)cc1Cl`
A. 102

====

- ASSAYED_TARGET: EPHA4 (human) (UniProt P54764)
- Sequence (P54764 whole entry, looked up): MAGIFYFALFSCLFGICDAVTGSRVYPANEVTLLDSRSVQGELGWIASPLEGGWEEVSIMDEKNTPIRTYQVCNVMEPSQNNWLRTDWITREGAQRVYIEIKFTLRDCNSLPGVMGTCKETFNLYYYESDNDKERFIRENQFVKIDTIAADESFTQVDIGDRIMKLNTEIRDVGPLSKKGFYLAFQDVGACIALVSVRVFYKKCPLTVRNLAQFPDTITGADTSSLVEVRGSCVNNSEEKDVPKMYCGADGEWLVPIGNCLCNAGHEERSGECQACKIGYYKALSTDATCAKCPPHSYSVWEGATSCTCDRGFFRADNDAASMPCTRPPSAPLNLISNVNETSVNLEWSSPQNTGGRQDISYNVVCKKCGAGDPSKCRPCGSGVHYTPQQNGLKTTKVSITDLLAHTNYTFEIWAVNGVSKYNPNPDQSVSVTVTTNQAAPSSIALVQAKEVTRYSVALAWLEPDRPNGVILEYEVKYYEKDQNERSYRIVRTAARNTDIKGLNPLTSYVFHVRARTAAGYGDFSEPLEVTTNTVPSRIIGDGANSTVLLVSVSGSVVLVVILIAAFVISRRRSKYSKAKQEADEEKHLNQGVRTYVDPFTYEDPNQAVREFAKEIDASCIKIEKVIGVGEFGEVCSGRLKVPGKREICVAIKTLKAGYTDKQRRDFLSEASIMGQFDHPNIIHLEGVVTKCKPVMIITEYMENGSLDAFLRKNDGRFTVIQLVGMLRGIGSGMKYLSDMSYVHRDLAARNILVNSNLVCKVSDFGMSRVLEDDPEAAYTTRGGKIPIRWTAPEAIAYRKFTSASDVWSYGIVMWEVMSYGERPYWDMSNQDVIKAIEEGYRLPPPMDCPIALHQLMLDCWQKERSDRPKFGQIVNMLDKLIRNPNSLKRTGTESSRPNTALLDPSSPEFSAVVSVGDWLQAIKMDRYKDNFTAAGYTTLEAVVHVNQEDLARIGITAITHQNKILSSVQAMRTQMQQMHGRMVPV
- METHOD_SUMMARY: radiometric filter-binding kinase assay
- TEST_CONDITIONS: compound 1.0 µM
I'd appreciate it if you could supply residual activity values for the items below.
Give just the number in %; leave the unit off.

Q. I have this compound here, `CCCCCc1ccc(/C=C/[C@H](O)[C@@H](CO)NC)cc1` , and I need its recorded residual activity.
A. 101

Q. I have this compound here, `CCNc1nc(Nc2cc(F)c(C(=O)N3CCOCC3)cc2OC)ncc1C(F)(F)F` , and I need its recorded residual activity.
A. 97

Q. I have this compound here, Nc1cccc2c1CN(C1CCC(=O)NC1=O)C2=O (centres undefined) , and I need its recorded residual activity.
A. 110

Q. I have this compound here, `Oc1ccc2ccccc2c1SSc1c(O)ccc2ccccc12` , and I need its recorded residual activity.
A. 98

Q. I have this compound here, `C=CC(=O)N1CCC[C@@H](n2nc(-c3ccc(Oc4ccccc4)cc3)c3c(N)ncnc32)C1` , and I need its recorded residual activity.
A. 92

Q. I have this compound here, `NC(=O)c1c(NC(=O)C2CC2)sc2c1CCCC2` , and I need its recorded residual activity.
A. 114

Q. I have this compound here, `NC(=O)c1ccc(-c2ccc(Oc3cncc4sc(-c5nn[nH]n5)cc34)cc2)cc1` , and I need its recorded residual activity.
A. 103

Q. I have this compound here, `Cc1ccc(-c2ccc3c(ccc4sc5c(c43)NC[C@@H](C)NC5=O)n2)cn1` , and I need its recorded residual activity.
A. 103

Q. I have this compound here, `Cc1ccc(=O)n(-c2ccccc2)c1` , and I need its recorded residual activity.
A. 106

====

- ASSAYED_TARGET: UniProt P45983
- Sequence (P45983 whole entry, looked up): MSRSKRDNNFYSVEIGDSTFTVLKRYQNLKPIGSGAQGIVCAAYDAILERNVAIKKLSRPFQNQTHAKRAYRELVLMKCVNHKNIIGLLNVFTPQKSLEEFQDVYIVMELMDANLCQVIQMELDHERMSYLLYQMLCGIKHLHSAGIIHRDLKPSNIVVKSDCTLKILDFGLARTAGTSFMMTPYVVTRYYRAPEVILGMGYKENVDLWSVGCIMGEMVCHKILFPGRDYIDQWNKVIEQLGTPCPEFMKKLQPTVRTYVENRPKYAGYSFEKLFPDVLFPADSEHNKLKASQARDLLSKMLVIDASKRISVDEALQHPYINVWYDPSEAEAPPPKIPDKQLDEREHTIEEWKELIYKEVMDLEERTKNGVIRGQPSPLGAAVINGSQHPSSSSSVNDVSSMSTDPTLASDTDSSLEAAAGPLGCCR
- METHOD_SUMMARY: radiometric filter-binding kinase assay
- TEST_CONDITIONS: compound 0.1 µM
MEASURE: residual activity (%)
Give just the number in %; leave the unit off.

Q. I have this molecule here, `O=C(Nc1nc2cc(C(F)(F)F)cc(NC3CC3)n2n1)c1cccnc1` , and I need its recorded residual activity.
A. 93

Q. I have this molecule here, `C/C(=C1/C(=O)Nc2ccc(NC(N)=O)cc21)c1ccc[nH]1` , and I need its recorded residual activity.
A. 106

Q. I have this molecule here, CC1=C(CO)C(=O)O[C@@H]([C@@H](C)[C@H]2CC[C@H]3[C@@H]4C[C@H]5O[C@]56[C@@H](O)C=CC(=O)[C@]6(C)C4CC[C@]23C)C1 (some centres not stated) , and I need its recorded residual activity.
A. 103

Q. I have this molecule here, `Cc1cccc(-c2nn(C(=S)Nc3ccccc3)cc2-c2ccnc3ccccc23)n1` , and I need its recorded residual activity.
A. 111

Q. I have this molecule here, `COc1ccc(-n2ncc3cnc(Nc4cc(OC)c(OC)c(OCCCN5CCN(C)CC5)c4)nc32)cc1` , and I need its recorded residual activity.
A. 89

Q. I have this molecule here, `Cc1ccc(Sc2cnc(Nc3cccc(Br)n3)s2)cc1C(=O)N1CCN(C(=O)CN)CC1` , and I need its recorded residual activity.
A. 98

Q. I have this molecule here, COc1cc(O)c2c(c1)[C@H]1OC1C[C@H](O)[C@H](O)C(=O)/C=C\C[C@H](C)OC2=O (some centres not stated) , and I need its recorded residual activity.
A. 98

====

- ASSAYED_TARGET: INSR (human)
- METHOD_SUMMARY: radiometric filter-binding kinase assay
- TEST_CONDITIONS: compound 0.1 µM
MEASURE: residual activity (%)
Give just the number in %; leave the unit off.

Q. I have this compound here, `c1ccc2c(-c3cnn4cc(-c5ccc(N6CCNCC6)cc5)cnc34)ccnc2c1` , and I need its recorded residual activity.
A. 105

Q. I have this compound here, `O=C(O)c1ccc(-c2c[nH]c3ncc(-c4ccccc4)cc23)cc1C1CCCC1` , and I need its recorded residual activity.
A. 111

Q. I have this compound here, `CNc1nc(-c2ccc3c(N)n[nH]c3c2)cc(N2C[C@@H](C(=O)NC3CCCCC3)CC[C@H]2C)n1` , and I need its recorded residual activity.
A. 103

Q. I have this compound here, `C=CC(=O)N1CCC[C@@H](n2nc(-c3ccc(Oc4ccccc4)cc3)c3c(N)ncnc32)C1` , and I need its recorded residual activity.
A. 77

Q. I have this compound here, `Cc1ccc(-c2ccc3c(ccc4sc5c(c43)NC[C@@H](C)NC5=O)n2)cn1` , and I need its recorded residual activity.
A. 123

Q. I have this compound here, `CCn1c(-c2nonc2N)nc2cncc(CNC3CCNCC3)c21` , and I need its recorded residual activity.
A. 99

Q. I have this compound here, `NC(=O)c1cc2c(-c3cccc(-c4ccccc4)c3)cnc(N)c2s1` , and I need its recorded residual activity.
A. 103
